system: SW-620 colon; experiment: NCI-60 one-dose screen, 48 h (100 = growth as untreated, 0 = no growth, -100 = all killed); conditions: 10 µM unless noted
This is part of a sample that, as a whole, favours compounds with a hit. Of some 83,000 tested, about 20% had one in any assay.
Decision: growth >= 60% yields Condition met, all other cases yield Condition not met.

Examples with answers:
{"columns": ["Smiles repr", "Label value"],
 "data": [
  ["O=S(=O)(Nc1ccc(F)cc1F)c1ccc(-c2cnc(C3CC3)o2)cc1", "Condition not met"],
  ["Fc1ccc(CNc2c3ccccc3nc3ccccc23)c(F)c1", "Condition not met"],
  ["Cc1ccc(NC(=O)c2sc3nc(C)c(Br)c(C)c3c2N)cc1", "Condition met"]
]}

Pending molecule:
Textbook exercise: given the entry COc1ccc(C(=O)Nc2cccc(-c3cc(=O)c4c(OC)c(OC)c(OC)cc4o3)c2)cc1 , state whether its growth is greater than or equal to 60%.
Condition met

Ref: PubChem BioAssay (NCI)
